# testSystem: T1, human VEGFA165 (human, UniProt P15692-4 27-191)
# T1 construct: Bought protein from two suppliers, treated as one molecule; the supplier is named under assay; also called antigen VEGFA
# T1 sequence (P15692 other isoform, or with tags, fused parts or gaps limits assumed): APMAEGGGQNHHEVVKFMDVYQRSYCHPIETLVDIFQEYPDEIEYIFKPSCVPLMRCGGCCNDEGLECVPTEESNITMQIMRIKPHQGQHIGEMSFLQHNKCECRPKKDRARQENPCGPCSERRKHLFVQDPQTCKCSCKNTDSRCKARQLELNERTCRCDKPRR
# protocolText: ELISA, coated human VEGFA165, anti-His detection
reportedMetric: EC50 (nM)
One number for each entry, in nM.

Exercise: // returns reported EC50 for input 2V1-39GS (VHH, Tandem bivalent nanobody) QLQLVESGGGSVQPGGSLRLSCEVSGRTFSSYTMGWFRQAPGKEREFVVAISKGGYKYDSVSLEARFTISKDNTKNTVYLQMNSLKPEDTAVYYCAATRAYGSSRLRLADTYEYWGQGTQVTVSSGGGGSGGGSGGGGSGGGGSGGGGSGGGGSGGGGSGGGGSQLQLVESGGGSVQPGGSLRLSCEVSGRTFSSYTMGWFRQAPGKEREFVVAISKGGYKYDSVSLEARFTISKDNTKNTVYLQMNSLKPEDTAVYYCAATRAYGSSRLRLADTYEYWGQGTQVTVSS
Solution: 0.18
